Form field: log10(EC50) (one value per entry).
- Assayed Target: CFTR in F508del/F508del primary CF hBE cells (Homo sapiens, UniProt P13569, DEL508-508)
- Construct: Primary cystic fibrosis human bronchial epithelial (CF hBE) cells were expanded and cultured; endogenous in cells
- Sequence (P13569 with tags, fused parts or gaps DEL508-508): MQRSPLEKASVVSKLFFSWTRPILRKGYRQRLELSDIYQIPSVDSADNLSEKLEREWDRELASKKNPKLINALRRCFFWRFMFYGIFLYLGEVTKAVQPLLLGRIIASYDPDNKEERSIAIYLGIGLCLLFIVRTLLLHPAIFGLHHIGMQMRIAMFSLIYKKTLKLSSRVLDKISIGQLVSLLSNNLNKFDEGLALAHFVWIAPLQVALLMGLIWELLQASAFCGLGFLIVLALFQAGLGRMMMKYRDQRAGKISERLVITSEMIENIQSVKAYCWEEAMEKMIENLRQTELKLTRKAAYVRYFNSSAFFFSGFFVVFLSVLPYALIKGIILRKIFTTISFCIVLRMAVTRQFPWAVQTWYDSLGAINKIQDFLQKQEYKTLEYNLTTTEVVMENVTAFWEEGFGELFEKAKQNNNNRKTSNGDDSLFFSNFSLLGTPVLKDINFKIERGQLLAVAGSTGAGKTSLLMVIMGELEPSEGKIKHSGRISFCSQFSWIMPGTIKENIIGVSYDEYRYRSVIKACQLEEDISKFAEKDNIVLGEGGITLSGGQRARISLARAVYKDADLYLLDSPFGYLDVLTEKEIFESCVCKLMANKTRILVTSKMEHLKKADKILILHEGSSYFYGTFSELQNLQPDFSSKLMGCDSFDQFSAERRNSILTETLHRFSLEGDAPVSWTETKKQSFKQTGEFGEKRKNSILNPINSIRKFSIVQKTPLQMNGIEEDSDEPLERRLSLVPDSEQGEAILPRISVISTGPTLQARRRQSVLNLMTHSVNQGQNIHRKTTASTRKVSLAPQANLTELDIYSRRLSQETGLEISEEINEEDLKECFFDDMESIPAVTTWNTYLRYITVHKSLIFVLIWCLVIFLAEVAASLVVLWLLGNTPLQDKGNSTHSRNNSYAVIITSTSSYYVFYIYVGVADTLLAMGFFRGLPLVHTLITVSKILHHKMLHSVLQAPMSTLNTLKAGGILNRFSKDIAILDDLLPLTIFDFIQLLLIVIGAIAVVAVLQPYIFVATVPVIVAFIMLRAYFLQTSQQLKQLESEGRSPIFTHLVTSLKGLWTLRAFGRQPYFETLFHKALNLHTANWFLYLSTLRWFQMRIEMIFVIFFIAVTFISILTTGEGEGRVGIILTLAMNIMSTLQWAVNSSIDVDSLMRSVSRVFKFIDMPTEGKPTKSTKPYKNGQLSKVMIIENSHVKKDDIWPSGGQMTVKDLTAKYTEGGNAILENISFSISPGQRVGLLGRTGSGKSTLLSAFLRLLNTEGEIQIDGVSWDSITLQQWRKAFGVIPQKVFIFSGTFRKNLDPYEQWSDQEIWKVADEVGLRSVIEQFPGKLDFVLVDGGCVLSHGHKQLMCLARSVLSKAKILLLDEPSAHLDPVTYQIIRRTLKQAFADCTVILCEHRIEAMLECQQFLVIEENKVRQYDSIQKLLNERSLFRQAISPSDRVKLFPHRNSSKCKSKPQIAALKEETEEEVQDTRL
- Assay Summary: Ussing chamber electrophysiology assay of CFTR potentiation in F508del/F508del CF bronchial epithelial cells (27° C.)
Hello, just confirming the data are log10 of EC50 with units of µM.

Examples with their reported log10(EC50) follow.
CC(c1cn(-c2ccc(F)cc2F)nn1)n1cc(-c2cnc(C(F)(F)F)nc2)c2c(N)ncnc21 (single isomer, unassigned; enantiomer 1)	-1.30
CC(c1cn(-c2ccccc2F)nn1)n1cc(-c2ccc(Cl)cc2)c2c(N)ncnc21 (stereo not shown) [Example 58]	-1.54
CCC(c1cn(-c2ccc(F)c(F)c2)nn1)n1cc(-c2cc(F)cnc2OC)c2c(N)ncnc21 (single isomer, unassigned; enantiomer 2) [Example 156]	-1.24
COc1nc(C(F)(F)F)ncc1-c1cn(Cc2cn(-c3ccccc3F)nn2)c2ncnc(N)c12	-1.62
COc1nccnc1-c1cn(Cc2cn(-c3ccccc3F)nn2)c2ncnc(N)c12	-1.30
COc1ncc(F)cc1-c1cn(Cc2cn(-c3ccccc3F)nn2)c2ncnc(N)c12	-1.60

Enquiry: Complete the entry with log10(EC50) for Nc1ncnc2c1c(C1CC1)cn2Cc1cnn(-c2ccccc2F)c1
Return: -1.06

Enquiry: Complete the entry with log10(EC50) for CC(c1cc(-c2ccccc2F)no1)n1cc(-c2ccc(Cl)cc2)c2c(N)ncnc21 (single isomer, unassigned; enantiomer 1) [Example 181]
Return: -1.61

Enquiry: Complete the entry with log10(EC50) for Nc1ncnc2c1c(-c1cnco1)cn2Cc1cn(-c2ccccc2F)nn1
Return: -0.09

Enquiry: Complete the entry with log10(EC50) for COc1ccc(-c2cn(Cc3cn(-c4ccccc4F)nn3)c3ncnc(N)c23)cc1
Return: -1.24

---

- Assayed Target: CFTR in F508del/F508del primary CF hBE cells (Homo sapiens, UniProt P13569, DEL508-508)
- Construct: Primary cystic fibrosis human bronchial epithelial (CF hBE) cells were expanded and cultured; endogenous in cells
- Assay Summary: Ussing chamber electrophysiology assay of CFTR potentiation in F508del/F508del CF bronchial epithelial cells (27° C.)
Experimental Readout: EC50 (nM)
Please give a number only; it is taken to be in nM.

Examples with their reported EC50 follow.
CC(c1cn(-c2ccccc2F)nn1)n1cc(C2CC2)c2c(N)ncnc21 (single isomer, unassigned) [Example 108]	706
COc1ncncc1-c1cn(C(c2cn(-c3ccccc3F)nn2)C2CC2)c2ncnc(N)c12 (single isomer, unassigned; enantiomer 1) [Example 174]	31.5
CCC(c1cn(-c2ccc(F)c(F)c2)nn1)n1cc(-c2cnc(C(F)(F)F)nc2)c2c(N)ncnc21 (single isomer, unassigned; enantiomer 1) [Example 153]	19.8

Enquiry: Provide the reported EC50 (system: CFTR in F508del/F508del primary CF hBE cells (Homo sapiens, UniProt P13569, DEL508-508)) for Nc1ncnc2c1c(-c1ccc(Cl)cc1)cn2Cc1cc(C2CC2)no1 [Example 280]
Return: 127

Enquiry: Provide the reported EC50 (system: CFTR in F508del/F508del primary CF hBE cells (Homo sapiens, UniProt P13569, DEL508-508)) for COc1ncc(-c2c(C#N)n(C(C)c3cc(-c4ccccc4F)no3)c3ncnc(N)c23)cn1 (single isomer, unassigned) [Example 15]
Return: 7

Enquiry: Provide the reported EC50 (system: CFTR in F508del/F508del primary CF hBE cells (Homo sapiens, UniProt P13569, DEL508-508)) for Cc1c(-c2ccc(Cl)cc2)c2c(N)ncnc2n1C(C)c1cn(-c2ccccc2F)nn1 (stereo not drawn) [Example 257]
Return: 38.3
